Reference for the values: PubChem BioAssay (NCI)

System: SF-539 CNS
Assay: NCI tumour cell line growth inhibition, 48 h
Give measured log10 of TGI for each item. Keep answers brief.
Field: value | Transform: log10 | Quantity: TGI | Unit: µM

Please report the measured log10 of TGI for "CN(C)CCCNc1ccnc2c([N+](=O)[O-])cccc12" tested on SF-539 CNS.
1.65

Would you please give the reported log10 of TGI of CC1=C(C)C(=O)OC(C(C)(O)C2(O)CC3OC34C3CC(O)C56OC5C=CC(=O)C6(C)C3CCC42C)C1 (configuration not stated) with SF-539 CNS?
0.81

# return log10 of TGI for "CN[C@@H](C)C(=O)N[C@H](C(=O)N1CCC[C@H]1c1nc(C(=O)c2ccc(F)cc2)cs1)C1CCCCC1" , test system: SF-539 CNS
1.25

Report log10 of TGI from SF-539 CNS testing of "O=C1NC(c2ccccc2)(c2ccccc2)C(=O)N1CCCCCCN1C(=O)NC(c2ccccc2)(c2ccccc2)C1=O"
1.91

Find the measured log10 of TGI of "CN1CCN(C2=C(Cl)C(=O)c3ccccc3C2=O)CC1" with SF-539 CNS as test system.
0.65

* * *

Would you mind telling me the reported TGI of each entry?
Tested on: KM20L2 colon
Test: NCI tumour cell line growth inhibition, 48 h

Assign TGI to the following record: NC(CSC(c1ccccc1)(c1ccccc1)c1ccccc1)C(=O)O (stereo not drawn)
5.47 µM

Please look at this molecule and report its TGI: COc1ccc(C2CC(c3sc(Nc4ccc(C)cc4)nc3C)=NN2)cc1 (stereo not drawn)
31.3 µM

Return reported TGI. Input molecule: "CCOC(=O)c1ccc(N=Cc2ccc(N(CCC#N)S(=O)(=O)c3ccccc3)cc2C)cc1"
> 100 µM

Given the molecule C=CCCC(O)c1cc(C)c(O)c(C)c1 (stereo not drawn) , write its reported TGI.
> 100 µM

In one line, give reported TGI of the entry "Cc1c(C)c2cc3c(=O)c(CCl)coc3c(C)c2oc1=O" .
> 100 µM

Please report the measured TGI for CC(=O)OC1(Sc2ccccc2)CC2[C@H]3COC(C)(C)O[C@H]3CC[C@@]2(C)CC1=O (stereo partly drawn)
> 100 µM

Specify measured TGI for "O=C1c2ccccc2C(=O)c2c1ccc1conc21" .
28.8 µM

Output TGI of "Cc1nc(-n2nc(-c3ccccc3)cc2-c2ccccc2)sc1C(=O)CC(=O)C(=O)Nc1ccc(Cl)c(Cl)c1"
> 100 µM

* * *

For each of the compounds below, state its TGI.
System: OVCAR-4 ovarian
Assay: NCI tumour cell line growth inhibition, 48 h

Identify the reported TGI for the following entry. "CC(=O)c1cc2c(Br)cccc2oc1=O"
> 100 µM

Identify TGI associated with the compound "Nc1nc(N)nc(CCCCc2nc(N)nc(N)n2)n1"
> 100 µM

Determine from records and report TGI for "NCCCn1c(Cl)nc2ccccc21"
> 100 µM

Give recorded TGI. "COc1cc(/C=C/C(=O)CC(=O)/C=C/c2cc(C)c(O)c(OC)c2)cc(C)c1O"
> 100 µM

Report TGI, nothing else, for this compound: CC1(Cl)C(=O)NC(=O)N([C@H]2C[C@H](O)[C@@H](CO)O2)C1N=[N+]=[N-] (some centres undefined)
> 100 µM

Identify measured TGI corresponding to "CCC1(CC)C(=O)NC(=O)NC1=S"
> 100 µM

Supply measured TGI of "O=C(c1ccc(Cl)cc1Cl)N1CCN(C(=O)c2ccc(Cl)cc2Cl)C1=S" in your reply.
80.9 µM

Quickly give me recorded TGI for "COC(=O)CNC(=O)C(=O)c1c(O)c(O)c(C(C)C)c2cc(C)c(-c3c(C)cc4c(C(C)C)c(O)c(O)c(C(=O)C(=O)NCC(=O)OC)c4c3O)c(O)c12"
4.58 µM

Let me know recorded TGI for "COC(=O)NC1(NC(=O)OC)NC(=O)c2ccccc2N1" , thanks.
> 100 µM
